- target: T1, human CD3 expressed on cells (Jurkat cells; human primary T cells) (human, UniProt P07766 23-207; P04234 22-171; P09693 23-182)
- T1 construct: whole, on cells
- T1 sequence (P07766 23-207, chain 1 of 3): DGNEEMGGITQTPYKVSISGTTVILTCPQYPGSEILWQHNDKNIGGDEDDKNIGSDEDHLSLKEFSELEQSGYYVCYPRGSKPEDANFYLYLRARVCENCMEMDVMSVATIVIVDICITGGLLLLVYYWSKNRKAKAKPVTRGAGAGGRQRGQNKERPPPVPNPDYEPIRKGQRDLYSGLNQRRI
- T1 sequence (P04234 22-171, chain 2 of 3): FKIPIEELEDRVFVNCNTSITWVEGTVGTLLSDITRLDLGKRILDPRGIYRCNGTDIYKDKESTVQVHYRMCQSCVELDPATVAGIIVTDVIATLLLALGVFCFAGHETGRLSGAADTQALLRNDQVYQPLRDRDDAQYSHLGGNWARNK
- T1 sequence (P09693 23-182, chain 3 of 3): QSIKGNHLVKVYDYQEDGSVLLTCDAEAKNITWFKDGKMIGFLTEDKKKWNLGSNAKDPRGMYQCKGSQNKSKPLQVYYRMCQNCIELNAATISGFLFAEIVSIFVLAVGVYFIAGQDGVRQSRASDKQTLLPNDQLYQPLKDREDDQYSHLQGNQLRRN
- experimental-protocol: flow cytometry, 25 nM, Jurkat cells
quantity-name: Binding (FOI)

INSERT INTO measurements (binder, value_measured) VALUES
  ('mAb 172 (antibody, V domains shown, VH/VL only) VH: EVQLVESGGGLVQPGRSLRLSCTTSGFTFDDYTMHWVRQVPGKGLEWVSDISWNSGSVGYADSVKGRFTISRDNAKNSLYLQMNSLRAEDTALYYCVKDSSGYGHYFHYYMDVWGKGTTVTVSS VL: DIQMTQSPSSLSASVGDRVTITCRASQSISNYLNWYQVKPGKAPKVLIYAASSLQSGVPSRFSGSGSGTDFTLTISSLQPEDFVSYYCHQSYNAPITFGQGTRLESK', 111),
  ('mAb 204 (antibody, V domains shown, VH/VL only) VH: QVQLVESGGGVVQSGRSLRLSCAASGFTFSGYGMHWVRQAPGKGLEWVAIVYYDGKNKYYADSVKGRFTISRDNSKNTLYLQMNSLRAEDTAVYYCVRGEGYNWFDPWGQGTLVTVSS VL: EIVMTQSPATLSVSPGERATLSCRASQSVSSNLAWYQQKPGQVPRLLIYGASTRATGIPARFSGSGSGTQFTLTISSLQSEDFAVYYCQQYNNWPLTFGGGTKVEIK', 162),
  ('mAb 252 (antibody, V domains shown, VH/VL only) VH: EVQILESGGGLVQPGGSLRLSCVASGFTFRSYVMSWVRRAPGRGLEWVSGISTSGGNTYYADSVKGRFTISRDNSKNTLFLQMNGLRAEDTAVYYCAKLFSYYYYFMDVWGKGTTVTVSS VL: SYELTQPLSVSVALGQTARITCGGNNIGSKDVHWYQQKPGQAPVLVIYRDSNRPSGIPERFSGSNSGNTATLTISGAQAGDEADYYCQVWDRRTAVFGGGTQLTAL', 184),
  ('mAb 201 (antibody, V domains shown, VH/VL only) VH: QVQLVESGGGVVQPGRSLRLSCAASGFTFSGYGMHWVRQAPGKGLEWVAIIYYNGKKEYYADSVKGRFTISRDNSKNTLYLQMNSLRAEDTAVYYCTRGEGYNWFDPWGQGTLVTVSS VL: EIVMTQSPATLSVSPGERATLSCRASQSVSSSLAWYQQKPGQAPRLLIYGASTRATGIPARFSGSGSGTEFTLTISSLQSEDFAVYYCQQYNNWPLTFGGGTKVEIK', 166);
